# Test system: recombinant rat MASP2 active protease (amino acids 296-685, C-terminal His Tag) (rat, UniProt Q9JJS8 296-685)
# Sequence (Q9JJS8 other isoform, or with tags, fused parts or gaps limits assumed): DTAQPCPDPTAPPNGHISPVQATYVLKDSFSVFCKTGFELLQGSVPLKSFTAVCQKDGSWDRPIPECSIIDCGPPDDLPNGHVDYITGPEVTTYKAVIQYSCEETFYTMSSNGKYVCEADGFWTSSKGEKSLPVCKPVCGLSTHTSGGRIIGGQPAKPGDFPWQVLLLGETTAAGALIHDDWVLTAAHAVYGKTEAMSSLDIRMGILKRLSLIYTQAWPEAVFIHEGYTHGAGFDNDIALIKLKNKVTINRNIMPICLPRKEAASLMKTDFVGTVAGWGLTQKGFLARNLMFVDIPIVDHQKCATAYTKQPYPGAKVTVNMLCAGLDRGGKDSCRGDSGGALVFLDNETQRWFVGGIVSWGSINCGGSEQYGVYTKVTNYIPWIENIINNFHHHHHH
# Method summary: cell-based or functional assay
Bridge positions count the residues as written; N and C are the ends. Square brackets hold non-standard residues; d marks the D form. Ends that are not written are not given here. Oic = O=C(O)[C@@H]1C[C@@H]2CCCC[C@@H]2N1; tBuAla = CC(C)(C)C[C@H](N)C(=O)O; Pen = CC(C)(S)[C@H](N)C(=O)O; NMeA = CN[C@@H](C)C(=O)O; Sar = CNCC(=O)O
Measured quantity: rat MASP2 IC50 (nM)

Binder	Measured quantity	Reading unit	Observed result
[Sar]ICSRSLP[Oic]I[Pen]IP-NH2 (disulfide 3-11; also: HCl salt) [Example 67: ((N-Me)G)-IC+SRSLP-(Oic)-I-(Pen)+IP-NH2 (HCl salt)]	rat MASP2 IC50	nM	36
[NMeA]ICSRS[tBuAla]P[(3R,6R)‑1,1‑Difluoro‑5‑azaspiro(2.4)heptane‑6‑carboxylic acid (enantiomer 2)]I[Pen]IP-NH2 (disulfide 3-11)	rat MASP2 IC50	nM	94
